Where do these numbers come from? They come from ChEMBL document CHEMBL3046897.

- Test system: Escherichia coli
- test: Antibacterial activity against Escherichia coli at 100 ug/disk after 24 hr by paper disk diffusion method
- Assay type: functional
- experimentalContext: read-out: IZ
Everything with zone of inhibition at 100 µg/disc lower than 20 mm is not met; everything else, including exactly 20 mm, is met.

Confirm if zone of inhibition at 100 µg/disc reported for the compound Cc1cc(=O)oc2cc(Oc3nc(Nc4ccc(N5C(=O)C(CN6CCN(c7ccccn7)CC6)SC5c5ccc(Cl)cc5)cc4)nc(N(C)C)n3)ccc12 (centres undefined) is 20 mm or above.
met

Confirm if zone of inhibition at 100 µg/disc reported for the compound O=C(O)c1cn(C2CC2)c2cc(N3CCNCC3)c(F)cc2c1=O is 20 mm or above.
met

Confirm if zone of inhibition at 100 µg/disc reported for the compound Cc1cc(=O)oc2cc(Oc3nc(Nc4ccc(N5C(=O)C(CN6CCN(c7ccccn7)CC6)SC5c5cccc(F)c5)cc4)nc(N(C)C)n3)ccc12 (centres undefined) is 20 mm or above.
met

Confirm if zone of inhibition at 100 µg/disc reported for the compound Cc1cc(=O)oc2cc(Oc3nc(Nc4ccc(/N=C/c5ccc(O)cc5O)cc4)nc(N(C)C)n3)ccc12 is 20 mm or above.
not met

Confirm if zone of inhibition at 100 µg/disc reported for the compound Cc1cc(=O)oc2cc(Oc3nc(Nc4ccc(N5C(=O)CSC5c5cccc(F)c5)cc4)nc(N(C)C)n3)ccc12 (centres undefined) is 20 mm or above.
met

Confirm if zone of inhibition at 100 µg/disc reported for the compound COc1ccc(/C=N/c2ccc(Nc3nc(Oc4ccc5c(C)cc(=O)oc5c4)nc(N(C)C)n3)cc2)cc1OC is 20 mm or above.
not met

Confirm if zone of inhibition at 100 µg/disc reported for the compound Cc1cc(=O)oc2cc(Oc3nc(Nc4ccc(N5C(=O)CSC5c5ccc(F)cc5)cc4)nc(N(C)C)n3)ccc12 (centres undefined) is 20 mm or above.
not met

Confirm if zone of inhibition at 100 µg/disc reported for the compound Cc1cc(=O)oc2cc(Oc3nc(Nc4ccc(N5C(=O)C(CN6CCN(c7ccccn7)CC6)SC5c5ccccc5C(=O)O)cc4)nc(N(C)C)n3)ccc12 (centres undefined) is 20 mm or above.
not met

Confirm if zone of inhibition at 100 µg/disc reported for the compound Cc1cc(=O)oc2cc(Oc3nc(Nc4ccc(N5C(=O)CSC5c5ccccc5C(=O)O)cc4)nc(N(C)C)n3)ccc12 (centres undefined) is 20 mm or above.
not met

Confirm if zone of inhibition at 100 µg/disc reported for the compound Cc1cc(=O)oc2cc(Oc3nc(Nc4ccc(/N=C/c5ccc(Cl)c(Cl)c5)cc4)nc(N(C)C)n3)ccc12 is 20 mm or above.
not met

Confirm if zone of inhibition at 100 µg/disc reported for the compound Cc1cc(=O)oc2cc(Oc3nc(Nc4ccc(N5C(=O)C(CN6CCN(c7ccccn7)CC6)SC5c5ccccc5)cc4)nc(N(C)C)n3)ccc12 (centres undefined) is 20 mm or above.
not met

Confirm if zone of inhibition at 100 µg/disc reported for the compound COc1ccc(C2SC(CN3CCN(c4ccccn4)CC3)C(=O)N2c2ccc(Nc3nc(Oc4ccc5c(C)cc(=O)oc5c4)nc(N(C)C)n3)cc2)cc1 (centres undefined) is 20 mm or above.
not met

Confirm if zone of inhibition at 100 µg/disc reported for the compound Cc1cc(=O)oc2cc(Oc3nc(Nc4ccc(/N=C/c5ccccc5)cc4)nc(N(C)C)n3)ccc12 is 20 mm or above.
not met

Confirm if zone of inhibition at 100 µg/disc reported for the compound Cc1cc(=O)oc2cc(Oc3nc(Nc4ccc(N5C(=O)CSC5c5ccc(Cl)c(Cl)c5)cc4)nc(N(C)C)n3)ccc12 (centres undefined) is 20 mm or above.
not met

Confirm if zone of inhibition at 100 µg/disc reported for the compound Cc1cc(=O)oc2cc(Oc3nc(Nc4ccc(N5C(=O)C(CN6CCN(c7ccccn7)CC6)SC5c5ccc([N+](=O)[O-])cc5)cc4)nc(N(C)C)n3)ccc12 (centres undefined) is 20 mm or above.
not met

Confirm if zone of inhibition at 100 µg/disc reported for the compound Cc1ccc(C2SC(CN3CCN(c4ccccn4)CC3)C(=O)N2c2ccc(Nc3nc(Oc4ccc5c(C)cc(=O)oc5c4)nc(N(C)C)n3)cc2)cc1 (centres undefined) is 20 mm or above.
not met

Confirm if zone of inhibition at 100 µg/disc reported for the compound Cc1cc(=O)oc2cc(Oc3nc(Nc4ccc(N5C(=O)C(CN6CCN(c7ccccn7)CC6)SC5c5ccc(Cl)cc5Cl)cc4)nc(N(C)C)n3)ccc12 (centres undefined) is 20 mm or above.
not met

Confirm if zone of inhibition at 100 µg/disc reported for the compound Cc1cc(=O)oc2cc(Oc3nc(Nc4ccc(/N=C/c5ccc([N+](=O)[O-])cc5)cc4)nc(N(C)C)n3)ccc12 is 20 mm or above.
not met

Confirm if zone of inhibition at 100 µg/disc reported for the compound Cc1cc(=O)oc2cc(Oc3nc(Nc4ccc(/N=C/c5ccccc5Br)cc4)nc(N(C)C)n3)ccc12 is 20 mm or above.
not met

Confirm if zone of inhibition at 100 µg/disc reported for the compound Cc1cc(=O)oc2cc(Oc3nc(Nc4ccc(N5C(=O)CSC5c5ccc(O)cc5)cc4)nc(N(C)C)n3)ccc12 (centres undefined) is 20 mm or above.
met

Confirm if zone of inhibition at 100 µg/disc reported for the compound Cc1cc(=O)oc2cc(Oc3nc(Nc4ccc(/N=C/c5ccc(Cl)cc5)cc4)nc(N(C)C)n3)ccc12 is 20 mm or above.
not met

Confirm if zone of inhibition at 100 µg/disc reported for the compound Cc1cc(=O)oc2cc(Oc3nc(Nc4ccc(N5C(=O)C(CN6CCN(c7ccccn7)CC6)SC5c5ccc(Cl)c(Cl)c5)cc4)nc(N(C)C)n3)ccc12 (centres undefined) is 20 mm or above.
not met

Confirm if zone of inhibition at 100 µg/disc reported for the compound COc1ccc(C2SC(CN3CCN(c4ccccn4)CC3)C(=O)N2c2ccc(Nc3nc(Oc4ccc5c(C)cc(=O)oc5c4)nc(N(C)C)n3)cc2)cc1OC (centres undefined) is 20 mm or above.
not met

Confirm if zone of inhibition at 100 µg/disc reported for the compound Cc1cc(=O)oc2cc(Oc3nc(Nc4ccc(N5C(=O)CSC5c5ccc(Cl)cc5Cl)cc4)nc(N(C)C)n3)ccc12 (centres undefined) is 20 mm or above.
not met

Confirm if zone of inhibition at 100 µg/disc reported for the compound COc1ccc(/C=N/c2ccc(Nc3nc(Oc4ccc5c(C)cc(=O)oc5c4)nc(N(C)C)n3)cc2)cc1 is 20 mm or above.
not met

Confirm if zone of inhibition at 100 µg/disc reported for the compound Cc1cc(=O)oc2cc(Oc3nc(Nc4ccc(N5C(=O)CSC5c5ccccc5)cc4)nc(N(C)C)n3)ccc12 (centres undefined) is 20 mm or above.
not met
